cell viability values for the compounds below.
Tested on: Vero E6
Assay: cell viability relative to DMSO; higher = less toxic
Conditions: 72 h; 1 nM
API: value field is a number in %; no unit string.

These solved cases illustrate the format of a correct answer.
Prompt: Give the value of cell viability reported for the following: O=C(c1ccc(OCCN2CCCCC2)cc1)c1c(-c2ccc(O)cc2)sc2cc(O)ccc12
Response: 107

Prompt: Give the value of cell viability reported for the following: CC(C)(C)C(=O)OCOC(=O)[C@@H]1N2C(=O)[C@@H](NC(=O)[C@H](N)c3ccccc3)[C@H]2SC1(C)C
Response: 103

Prompt: Give the value of cell viability reported for the following: C/C(=C\C(=O)Nc1ccccc1C(=O)O)c1ccc2ccccc2c1
Response: 105

Note: attention shifts to another entry.
Prompt: Give the value of cell viability reported for the following: O=C(Nc1ccc(C(F)(F)F)cn1)N1CCN(c2ncccc2C(F)(F)F)CC1
Response: 102
